Tested on: COLO 205 colon
assayProtocol: NCI-60 one-dose screen, 48 h (100 = growth as untreated, 0 = no growth, -100 = all killed)
measurementSetup: 10 µM unless noted
Compounds without any hit were thinned out: in the full panel of roughly 83,000, 20% have a hit.
Decision: growth beneath 90% gives YES; growth meeting or exceeding 90% gives NO.

As a guide, the following entries are already answered.
>>> qualitativelabel("COc1ccc2c(c1)sc1nc(-c3ccc(Br)cc3)cn12")
"NO"
>>> qualitativelabel("Cc1sc2nc3c4ccccc4c(NCCCN(C)C)nn3c(=O)c2c1C")
"YES"
>>> qualitativelabel("Cc1[nH]c(=O)[nH]c(=O)c1CCSSCCc1c(C)[nH]c(=O)[nH]c1=O")
"NO"
>>> qualitativelabel("Cc1sc2nc(N3CCCCC3)[nH]c(=O)c2c1C")
"NO"
>>> qualitativelabel("O=CN1N=C(c2ccc(Nc3ccnc4cc(Cl)ccc34)cc2)CC1c1ccc(Cl)cc1 (stereo not given)")
"YES"
>>> qualitativelabel("O=C(/C=C/c1c(-c2ccccc2)[nH]c2ccccc12)S(=O)(=O)c1ccccc1")
"YES"

*Q* # check: growth < 90% for COc1ccc(CNC(=O)c2c(C)n([O-])c3ccccc3[n+]2=O)cc1
*A* NO

*Q* Now give it for COc1ccc([N+](=O)[O-])c(S(=O)(=O)c2ccc(Cl)cc2)n1 too.
*A* YES

*Q* Now give it for COc1ccc(N2CCN(CC(=O)N3CCN(c4nnc(-c5ccc(Cl)cc5)c(-c5ccc(Cl)cc5)n4)CC3)CC2)cc1 too.
*A* YES

*Q* Now give it for CSc1nc2nc3c(nc2c(=O)n1C)C(=O)c1ccccc1C3=O too.
*A* YES

*Q* Now give it for CC(NNC(=S)N1CCCCCC1)c1ccc2ccccc2n1 (stereo not given) too.
*A* YES

*Q* Now give it for FC(F)(F)c1cc(-c2nnc3n2N=C(N2CCCC2)CS3)cc(C(F)(F)F)c1 too.
*A* NO

*Q* Now give it for CCOc1cc(/C=C/C(=O)C(C(=O)/C=C/c2ccc(OC(=O)CNc3nc4ccccc4[nH]3)c(OCC)c2)C(=O)CNc2nc3ccccc3[nH]2)ccc1OC(=O)CNc1nc2ccccc2[nH]1 too.
*A* YES

*Q* Now give it for CC(=O)c1nn(-c2ccccc2)c(=Nc2ccccc2)cc1C too.
*A* NO

*Q* Now give it for O=C1CNc2cc(Cl)ccc2N1 too.
*A* NO

*Q* Now give it for CN(C)CCCNc1nn2c(=O)c3ccccc3nc2c2ccccc12 too.
*A* YES

*Q* Now give it for O=C1/C(=C/c2ccc(F)cc2)Cc2ccccc21 too.
*A* NO

----------
Test system: MCF7 breast
assayProtocol: NCI-60 one-dose screen, 48 h
measurementSetup: 10 µM unless noted
This is part of a sample that, as a whole, favours compounds with a hit. Of some 83,000 tested, about 20% had one in any assay. The source made the active and inactive calls. Rule for the calls: active = growth percent below 10; inactive = the rest.
Would you mind answering with one of these outcomes? active, inactive

As a guide, the following entries are already answered.
>>> qualitativelabel("Nc1ccc2c(c1)C(=O)c1cc(Cl)c(Cl)cc1-2")
"inactive"
>>> qualitativelabel("CCOC(=O)CCC(=O)O[C@H]1[C@H](O[C@@H]2[C@@H](C)[C@H](O[C@H]3C[C@@](C)(OC)[C@@H](O)[C@H](C)O3)[C@@H](C)C(=O)O[C@H](CC)[C@@](C)(O)[C@H](O)[C@@H](C)C(=O)[C@H](C)C[C@@]2(C)O)O[C@H](C)C[C@@H]1N(C)C")
"inactive"
>>> qualitativelabel("NC(=O)NC1(C(=O)O)CCCC1")
"inactive"
>>> qualitativelabel("N#Cc1ccc(-c2csc(Nc3ccc4nc5n(c(=O)c4c3)CCC5)n2)cc1")
"inactive"
>>> qualitativelabel("CC(=O)Nc1ccc(C(=O)COc2ccc(/C=C3\\CCc4ccccc4C3=O)cc2)cc1")
"inactive"
>>> qualitativelabel("CC(=O)N1N=C(c2ccc(Cl)cc2)CC1c1c(C)nn(-c2ccccc2)c1N(C)Cc1ccccc1 (stereo unspecified)")
"inactive"

Okay, now this compound:
*Q* Outcome? CSc1nc2nc3c(nc2c(=O)n1C)C(=O)c1ccccc1C3=O
*A* active

----------
Test system: SN12C renal
assayProtocol: NCI-60 one-dose screen, 48 h
measurementSetup: 10 µM unless noted
Compounds without any hit were thinned out: in the full panel of roughly 83,000, 20% have a hit. Activity calls are given as the source filed them. How the source made its calls: active means growth percent below 10; inactive means the rest.
Would you mind answering with one of these outcomes? 1 (active), 0 (inactive)

>>> qualitativelabel("COc1ccccc1-n1c(-c2ccc(O)cc2C)cn2c3c(=O)[nH]c(=O)n(C)c3nc12")
0
>>> qualitativelabel("C=C1CCC2C3(C)COC(c4ccccc4)OC3CCC2(C)C1C/C=C1/C(=O)OCC1OC(C)=O (stereo unspecified)")
0
>>> qualitativelabel("COc1cc(C(=O)c2cc3c(cc2C)OCO3)cc(OC)c1OC")
0

*Q* Outcome? CCN(CC)CCSc1ncnc2c1cnn2-c1ccc(S(N)(=O)=O)cc1
*A* 0

*Q* Now give it for N#Cc1c(NC(=O)c2ccco2)[n+]([O-])c2ccccc2[n+]1[O-] too.
*A* 0

*Q* Now give it for COc1cc(-c2n[nH]nc2-c2ccccn2)cc(OC)c1OC too.
*A* 0

*Q* Now give it for O=c1oc2c(cc1-c1ccc([N+](=O)[O-])cc1)C(O)Oc1ccccc1-2 (stereo unspecified) too.
*A* 0

*Q* Now give it for c1ccc(-c2nc(Nc3nccnn3)c3ccccc3n2)cc1 too.
*A* 0

*Q* Now give it for COc1cc(OC)c2c(c1Cl)O[C@]1(C2=O)C(OCc2ccccc2)=CC(=O)C[C@H]1C too.
*A* 0

----------
Tested on: NCI-H460 lung
assayProtocol: NCI-60 one-dose screen, 48 h (100 = growth as untreated, 0 = no growth, -100 = all killed)
measurementSetup: 10 µM unless noted
The panel holds about 83,000 compounds, 20% with a hit somewhere; the sample as a whole holds those more often. The source made the active and inactive calls. How the source made its calls: active means growth percent below 10; inactive means the rest.
Please provide measured growth for the entries that follow.

>>> result("COc1cc(C2CC(C3C(=O)N(C)C(=O)N(C)C3=O)=NN2c2cc(Cl)cc(Cl)c2)cc(OC)c1OC (stereo not given)")
"94.5% (inactive)"
>>> result("C[C@]12CC[C@H](O)CC1=CC[C@@H]1[C@@H]2CC[C@]2(C)C(c3cccnc3)=CC[C@@H]12")
"66.5% (inactive)"
>>> result("c1ccc(CN=C(NCc2ccccc2)NCc2ccccc2)cc1")
"73.4% (inactive)"
>>> result("CCOC(=O)CCC(=O)O[C@H]1[C@H](O[C@@H]2[C@@H](C)[C@H](O[C@H]3C[C@@](C)(OC)[C@@H](O)[C@H](C)O3)[C@@H](C)C(=O)O[C@H](CC)[C@@](C)(O)[C@H](O)[C@@H](C)C(=O)[C@H](C)C[C@@]2(C)O)O[C@H](C)C[C@@H]1N(C)C")
"119% (inactive)"
>>> result("O=C(/C=C/c1c(-c2ccccc2)[nH]c2ccccc12)S(=O)(=O)c1ccccc1")
"43.8% (inactive)"

Below are 3 molecules. Give each one its growth.
1. COc1cccc(-c2nc3cc(NC(=O)c4ccc(Cl)c(C#N)c4)ccc3o2)c1
2. O=C1CSC(c2ccccc2Cl)N1c1nnc(Cn2nnc3ccccc32)o1 (stereo not given)
3. CSc1nc2nc3c(c(-c4ccc(C)cc4)c2c(=O)[nH]1)CN(C)C/C3=C\c1ccc(C)cc1

*A*
1: -21.4% (active); 2: 88% (inactive); 3: 111% (inactive)

Below are 3 molecules. Give each one its growth.
1. O=C(c1ccccc1)C(CN1CCCCC1)c1ccccc1 (stereo not given)
2. O=c1c2ccccc2c2nccn2c2cc(Cl)ccc12
3. CC(NC(N)=S)c1ccccc1 (stereo not given)

*A*
68.7% (inactive)
101% (inactive)
101% (inactive)

Below are 6 molecules. Give each one its growth.
1. N#Cc1c(-c2ccccc2)cc(-c2ccccc2)n(CCCCCCC(=O)O)c1=O
2. c1ccc(N2c3nc4ccccc4cc3Sc3cc4ccccc4nc32)nc1
3. O=C1CSC(c2ccccc2O)N1c1nnc(Cn2ccnc2)o1 (stereo not given)
4. O=[N+]([O-])c1ccc(NS(=O)(=O)c2ccc(Cl)c(Cl)c2)cc1
5. NC(=O)c1cc(Cl)ccc1NC(=O)c1ccccc1-c1ccccc1
6. O=C(/C=C/c1cccc(O)c1)c1cccc(-n2cc(-c3ccccc3)[nH]c2=O)c1

*A*
1: 102% (inactive); 2: 111% (inactive); 3: 34.8% (inactive); 4: 77.7% (inactive); 5: 13.2% (inactive); 6: 34.8% (inactive)

Below are 3 molecules. Give each one its growth.
1. CC1C(=O)NC2=Nc3ccccc3C(=O)NN21 (stereo not given)
2. CCOC1Oc2ccccc2C(=O)/C1=N/c1nccs1 (stereo not given)
3. O=C(c1ccc(Cl)cc1)c1ccc(Cl)cc1

*A*
["104% (inactive)", "106% (inactive)", "107% (inactive)"]
